Ref: paper PMC12283027

# measurement_target: Receptor-interacting protein kinase 1 (RIPK1) (Homo sapiens, UniProt Q13546)
# Construct: with VHL
# Sequence (Q13546 whole entry): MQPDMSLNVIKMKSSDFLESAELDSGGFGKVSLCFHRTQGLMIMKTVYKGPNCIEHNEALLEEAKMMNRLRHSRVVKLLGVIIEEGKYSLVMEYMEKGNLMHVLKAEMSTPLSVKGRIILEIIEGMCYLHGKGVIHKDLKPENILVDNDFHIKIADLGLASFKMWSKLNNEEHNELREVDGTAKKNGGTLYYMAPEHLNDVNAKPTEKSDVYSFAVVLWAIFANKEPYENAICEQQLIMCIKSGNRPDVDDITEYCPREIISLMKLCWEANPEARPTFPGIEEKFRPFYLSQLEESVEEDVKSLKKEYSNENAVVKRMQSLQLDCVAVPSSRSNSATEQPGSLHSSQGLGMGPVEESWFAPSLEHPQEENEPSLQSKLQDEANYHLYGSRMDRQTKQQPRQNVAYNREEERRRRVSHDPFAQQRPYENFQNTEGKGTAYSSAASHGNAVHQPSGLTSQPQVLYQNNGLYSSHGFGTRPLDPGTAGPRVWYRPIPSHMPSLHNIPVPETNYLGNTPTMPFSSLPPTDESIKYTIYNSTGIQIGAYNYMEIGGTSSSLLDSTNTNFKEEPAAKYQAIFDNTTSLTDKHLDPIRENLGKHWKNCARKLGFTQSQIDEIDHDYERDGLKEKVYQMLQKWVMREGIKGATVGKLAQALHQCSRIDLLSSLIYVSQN
# Sequence (P40337 whole entry partner): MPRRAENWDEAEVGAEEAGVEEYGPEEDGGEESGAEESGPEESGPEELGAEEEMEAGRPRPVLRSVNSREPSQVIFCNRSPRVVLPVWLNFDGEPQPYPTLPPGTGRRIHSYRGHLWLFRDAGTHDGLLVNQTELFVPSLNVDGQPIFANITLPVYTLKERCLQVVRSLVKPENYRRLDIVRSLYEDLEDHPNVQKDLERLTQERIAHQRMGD
# run_description: cell-based
# Set-up: HiBiT luminescence of CRISPR-tagged endogenous RIPK1 (C-terminal HiBiT) after PROTAC treatment; degradation DC50 and Dmax
# setup_conditions: HEK293T-RIPK1-HiBiT cells; read-out: Dmax (HEK293T-RIPK1-HiBiT cell line)
# Protocol: Screening of RIPK1 Degraders Using HEK-293T-RIPK1-HiBiT cells 3 Primary screening RIPK1 degraders using HEK293T-RIPK1-HiBiT cell line. Cells were seeded in 96-well plates and treated with test compounds for 20 h. […] B) Relative luminescence Units (RLUs) in each well was measured using CLARIOstar plate reader. DC50 values were calculated by nonlinear regression analysis in GraphPad Prism software. […]
measurement_name: Dmax (%)

[I] Cc1ncsc1-c1ccc([C@H](C)NC(=O)[C@@H]2C[C@@H](O)CN2C(=O)[C@@H](NC(=O)CCCCCN2CCN(C(=O)Cn3cc(-c4cnc(N)c5c(-c6ccc7c(c6)CCN7C(=O)Cc6ccccc6)csc45)cn3)CC2)C(C)(C)C)cc1
[II] Cc1ncsc1-c1ccc([C@H](C)NC(=O)[C@@H]2C[C@@H](O)CN2C(=O)[C@@H](NC(=O)CCCCNC2CCN(C(=O)Cn3cc(-c4cnc(N)c5c(-c6ccc7c(c6)CCN7C(=O)Cc6ccccc6)csc45)cn3)CC2)C(C)(C)C)cc1
[III] Cc1ncsc1-c1ccc([C@H](C)NC(=O)[C@@H]2C[C@@H](O)CN2C(=O)[C@@H](NC(=O)CCCCCOc2ccc(NC(=O)Cn3cc(-c4cnc(N)c5c(-c6ccc7c(c6)CCN7C(=O)Cc6ccccc6)csc45)cn3)cc2)C(C)(C)C)cc1
## Input Sort the listed compounds above so the one with the largest Dmax comes first and the smallest comes last. Please write the labels in the order that was asked for.
## Output III, I, II
(III: 92%, I: 58%, II: 9%)

###

# measurement_target: Receptor-interacting protein kinase 1 (RIPK1) (Homo sapiens, UniProt Q13546)
# Construct: with VHL
# run_description: cell-based
# Design: HiBiT luminescence of CRISPR-tagged endogenous RIPK1 (C-terminal HiBiT) after PROTAC treatment; degradation DC50 and Dmax
# setup_conditions: HEK293T-RIPK1-HiBiT cells; read-out: Dmax (HEK293T-RIPK1-HiBiT cell line)
measurement_name: Dmax (%)

[[record]]
substance_smiles = "Cc1ncsc1-c1ccc([C@H](C)NC(=O)[C@@H]2C[C@@H](O)CN2C(=O)[C@@H](NC(=O)COCCOc2ccc(CNC(=O)Cn3cc(-c4cnc(N)c5c(-c6ccc7c(c6)CCN7C(=O)Cc6ccccc6)csc45)cn3)cc2)C(C)(C)C)cc1"
measurement_target = "Receptor-interacting protein kinase 1 (RIPK1) (Homo sapiens, UniProt Q13546)"
measurement_name = "Dmax"
reading = 93

[[record]]
substance_smiles = "Cc1ncsc1-c1ccc([C@H](C)NC(=O)[C@@H]2C[C@@H](O)CN2C(=O)[C@@H](NC(=O)CNC(=O)Cn2cc(-c3cnc(N)c4c(-c5ccc6c(c5)CCN6C(=O)Cc5ccccc5)csc34)cn2)C(C)(C)C)cc1"
measurement_target = "Receptor-interacting protein kinase 1 (RIPK1) (Homo sapiens, UniProt Q13546)"
measurement_name = "Dmax"
reading = 1


[I] Cc1ncsc1-c1ccc([C@H](C)NC(=O)[C@@H]2C[C@@H](O)CN2C(=O)[C@@H](NC(=O)CCOc2ccc(CCNC(=O)Cn3cc(-c4cnc(N)c5c(-c6ccc7c(c6)CCN7C(=O)Cc6ccccc6)csc45)cn3)cc2)C(C)(C)C)cc1
[II] Cc1ncsc1-c1ccc([C@H](C)NC(=O)[C@@H]2C[C@@H](O)CN2C(=O)[C@@H](NC(=O)COCCOCCOCCOCCNC(=O)Cn2cc(-c3cnc(N)c4c(-c5ccc6c(c5)CCN6C(=O)Cc5ccccc5)csc34)cn2)C(C)(C)C)cc1
## Input Record comparison, field Dmax: mark the lower of I and II . API: response body contains the label of the selected item.
## Output II
